Biological target: hERG ion channel (Homo sapiens)
Structures can show the parent of a compound that is named as a salt.
property label: Ki (µM)
Numbers only, in µM.

Provide Ki for all items below, preserving their order.
1. c1cc2cc(-c3ccc(O[C@H]4CN5CCC4CC5)nc3)ccc2[nH]1 [Example 31, trifluoroacetate]
2. c1ccc2cc(-c3ccc(O[C@H]4CN5CCC4CC5)nn3)ccc2c1 [Example A, trifluoroacetate, reference compound]
3. CN(C)Cc1c[nH]c2ccc(-c3ccc(O[C@H]4CN5CCC4CC5)nn3)cc12 [Example 22, bis(fumarate)]
4. C1=Cc2cc(-c3ccc(O[C@H]4CN5CCC4CC5)nn3)ccc2C1 [D, trifluoroacetate, reference compound]
5. c1cc2cc(-c3ccc(O[C@H]4CN5CCC4CC5)nn3)ccc2[nH]1 [Example 9]
6. c1cc2cc(-c3ccc(O[C@H]4CN5CCC4CC5)nn3)ccc2o1 [B, trifluoroacetate, reference compound]
7. c1cc2c(cc1-c1ccc(O[C@H]3CN4CCC3CC4)nn1)CCC2 [E, trifluoroacetate, reference compound]

Given back:
1: 2.57; 2: 0.838; 3: 37.3; 4: 2.09; 5: 10.9; 6: 4.09; 7: 1.68

###

Target: hERG ion channel (Homo sapiens, UniProt Q12809)
Sequence (Q12809 whole entry): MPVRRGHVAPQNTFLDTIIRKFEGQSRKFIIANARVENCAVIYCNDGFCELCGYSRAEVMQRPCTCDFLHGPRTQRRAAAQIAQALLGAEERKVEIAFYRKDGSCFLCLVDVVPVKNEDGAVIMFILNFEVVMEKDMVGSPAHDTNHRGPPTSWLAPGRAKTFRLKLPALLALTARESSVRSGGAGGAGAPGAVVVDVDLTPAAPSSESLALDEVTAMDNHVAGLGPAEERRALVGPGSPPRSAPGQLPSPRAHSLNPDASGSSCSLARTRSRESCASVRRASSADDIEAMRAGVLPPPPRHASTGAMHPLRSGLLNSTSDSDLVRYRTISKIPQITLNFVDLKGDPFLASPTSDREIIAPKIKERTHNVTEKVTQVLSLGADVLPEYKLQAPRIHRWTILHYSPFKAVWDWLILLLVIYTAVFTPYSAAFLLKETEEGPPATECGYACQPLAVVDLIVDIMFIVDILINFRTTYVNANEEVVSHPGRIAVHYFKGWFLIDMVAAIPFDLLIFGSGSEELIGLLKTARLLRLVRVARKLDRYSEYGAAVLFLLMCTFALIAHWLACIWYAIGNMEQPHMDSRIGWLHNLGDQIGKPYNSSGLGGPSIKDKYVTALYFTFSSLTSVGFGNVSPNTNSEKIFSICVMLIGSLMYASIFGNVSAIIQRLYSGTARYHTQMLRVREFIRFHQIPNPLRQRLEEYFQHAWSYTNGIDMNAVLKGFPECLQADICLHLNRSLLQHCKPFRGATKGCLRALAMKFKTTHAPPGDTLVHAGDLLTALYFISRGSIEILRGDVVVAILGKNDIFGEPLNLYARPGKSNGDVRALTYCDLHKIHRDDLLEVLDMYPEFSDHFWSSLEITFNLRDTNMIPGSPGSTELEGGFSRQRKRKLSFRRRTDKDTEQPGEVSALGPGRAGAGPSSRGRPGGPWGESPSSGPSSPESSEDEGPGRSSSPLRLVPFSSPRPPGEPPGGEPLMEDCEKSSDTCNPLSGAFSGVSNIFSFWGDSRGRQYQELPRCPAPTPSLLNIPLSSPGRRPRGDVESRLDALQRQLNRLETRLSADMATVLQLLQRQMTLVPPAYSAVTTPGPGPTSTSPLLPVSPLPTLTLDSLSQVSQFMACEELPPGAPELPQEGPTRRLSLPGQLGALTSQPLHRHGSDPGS
Assay: [3H]-dofetilide binding to membranes from HERG-transfected HEK cells
Conditions: human, membrane preparations from HERG-transfected HEK cells, pH 7.4, probe [3H]-dofetilide
Structures can show the parent of a compound that is named as a salt.
Recorded selectivity ratio at 45 min determines the label; the label ranges are lower level: < 100; middle level: ≥ 100 and < 800; upper level: ≥ 800

| molecule | study target | assigned category |
| --- | --- | --- |
| CN(C)Cc1c[nH]c2ccc(-c3ccc(O[C@H]4CN5CCC4CC5)nn3)cc12 [Example 22, bis(fumarate)] | hERG ion channel (Homo sapiens, UniProt Q12809) | middle level |
| c1cc2c(cc1-c1ccc(O[C@H]3CN4CCC3CC4)nn1)CCC2 [E, trifluoroacetate, reference compound] | hERG ion channel (Homo sapiens, UniProt Q12809) | lower level |
| C1=Cc2cc(-c3ccc(O[C@H]4CN5CCC4CC5)nn3)ccc2C1 [D, trifluoroacetate, reference compound] | hERG ion channel (Homo sapiens, UniProt Q12809) | middle level |
| c1ccc2oc(-c3ccc(O[C@H]4CN5CCC4CC5)nn3)cc2c1 [Example C, trifluoroacetate, reference compound] | hERG ion channel (Homo sapiens, UniProt Q12809) | lower level |
| c1cc(-c2cnc(O[C@H]3CN4CCC3CC4)nc2)c2cc[nH]c2c1 | hERG ion channel (Homo sapiens, UniProt Q12809) | middle level |

Asked: For c1cc2cc(-c3ccc(O[C@@H]4CN5CCC4CC5)nn3)ccc2[nH]1 [Example 30, fumarate] , which selectivity ratio at 45 min bin applies?
Given back: upper level

Asked: Categorize the following entry: c1cc2cc(-c3ccc(O[C@H]4CN5CCC4CC5)nn3)ccc2o1 [B, trifluoroacetate, reference compound]
Given back: lower level

Asked: For this molecule, which bin applies? "O=C1Cc2cc(-c3ccc(O[C@H]4C[N+]5([O-])CCC4CC5)nn3)ccc2N1"
Given back: upper level

Asked: Exam item: assign "Nc1nc2ccc(-c3ccc(O[C@H]4CN5CCC4CC5)cc3)cc2s1" to the correct category.
Given back: upper level

Asked: Class for "c1cc2cc(-c3ccc(O[C@H]4CN5CCC4CC5)nn3)ccc2[nH]1" ?
Given back: upper level

Asked: Each molecule maps to one class by selectivity ratio at 45 min. Which class for c1cc2cc(-c3ccc(O[C@H]4CN5CCC4CC5)nc3)ccc2[nH]1 [Example 31, trifluoroacetate] ?
Given back: middle level

Asked: Band for the recorded selectivity ratio at 45 min of c1ccc2cc(-c3ccc(O[C@H]4CN5CCC4CC5)nn3)ccc2c1 [Example A, trifluoroacetate, reference compound] ?
Given back: lower level

Asked: Just checking, what class would you give "Cc1c[nH]c2ccc(-c3ccc(O[C@H]4CN5CCC4CC5)nn3)cc12" here?
Given back: upper level

###

Molecular target: α7 nAChRs (Rattus norvegicus, UniProt Q05941)
Construct: Membrane enriched fractions from rat brain minus cerebellum; tissue ABS Inc., Wilmington, Del; host or cells: rat brain minus cerebellum
Sequence (Q05941 23-502): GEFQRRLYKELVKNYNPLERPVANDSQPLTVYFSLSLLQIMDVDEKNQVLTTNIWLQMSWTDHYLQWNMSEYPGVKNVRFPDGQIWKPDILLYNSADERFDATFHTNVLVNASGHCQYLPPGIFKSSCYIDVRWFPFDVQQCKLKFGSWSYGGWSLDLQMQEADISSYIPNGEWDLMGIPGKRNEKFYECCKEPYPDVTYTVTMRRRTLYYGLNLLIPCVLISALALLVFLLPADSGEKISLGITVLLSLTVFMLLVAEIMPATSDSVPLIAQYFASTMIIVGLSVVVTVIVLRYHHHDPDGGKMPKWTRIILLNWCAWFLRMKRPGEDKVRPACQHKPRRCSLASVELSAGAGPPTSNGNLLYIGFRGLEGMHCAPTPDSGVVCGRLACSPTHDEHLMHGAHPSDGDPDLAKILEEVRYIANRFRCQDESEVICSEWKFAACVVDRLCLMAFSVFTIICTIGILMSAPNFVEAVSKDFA
Test: [3H]-methyllycaconitine (MLA) binding assay
Conditions: rat brain minus cerebellum membranes, 5 nM [3H]-MLA; read-out: α7 binding [3H]MLA Ki
Structures can show the parent of a compound that is named as a salt.
Criterion: Ki strictly under 60 nM. Met: Y. Not met: N.

The examples below pair each entry with its known result.
| molecule | assigned category |
| --- | --- |
| CN(C)Cc1c[nH]c2ccc(-c3ccc(O[C@H]4CN5CCC4CC5)nn3)cc12 [Example 22, bis(fumarate)] | Y |
| c1cc2cc(-c3ccc(O[C@H]4CN5CCC4CC5)nn3)ccc2[nH]1 | Y |
| C1=Cc2cc(-c3ccc(O[C@H]4CN5CCC4CC5)nn3)ccc2C1 [D, trifluoroacetate, reference compound] | Y |
| c1cc2cc(-c3ccc(O[C@H]4CN5CCC4CC5)nc3)ccc2[nH]1 [Example 31, trifluoroacetate] | Y |
| O=C1Cc2cc(-c3ccc(O[C@H]4C[N+]5([O-])CCC4CC5)nn3)ccc2N1 | Y |
| c1ccc2oc(-c3ccc(O[C@H]4CN5CCC4CC5)nn3)cc2c1 [Example C, trifluoroacetate, reference compound] | N |
| c1ccc2cc(-c3ccc(O[C@H]4CN5CCC4CC5)nn3)ccc2c1 [Example A, trifluoroacetate, reference compound] | N |
| c1cc2cc(-c3ccc(O[C@@H]4CN5CCC4CC5)nn3)ccc2[nH]1 [Example 30, fumarate] | Y |
| Cc1n[nH]c2ccc(-c3ccc(O[C@H]4CN5CCC4CC5)nn3)cc12 [Example 20, fumarate] | Y |
| c1cc2cc(-c3ccc(O[C@H]4CN5CCC4CC5)nn3)ccc2o1 [B, trifluoroacetate, reference compound] | N |

Asked: Is Ki strictly under 60 nM for the entry c1cc2c(cc1-c1ccc(O[C@H]3CN4CCC3CC4)nn1)CCC2 [E, trifluoroacetate, reference compound] ?
Given back: Y

###

Please respond with reported Ki for every item in the list.
Molecular target: α7 nAChRs (Rattus norvegicus, UniProt Q05941)
Construct: Membrane enriched fractions from rat brain minus cerebellum; tissue ABS Inc., Wilmington, Del; host or cells: rat brain minus cerebellum
Experiment: [3H]-methyllycaconitine (MLA) binding assay
Give bare numbers, in nM.

| compound | value measured |
| --- | --- |
| Cc1c[nH]c2ccc(-c3ccc(O[C@H]4CN5CCC4CC5)nn3)cc12 [Example 10] | 3.1 |

Below is a list of compounds. For each, state its recorded Ki.
1. Nc1nc2ccc(-c3ccc(O[C@H]4CN5CCC4CC5)cc3)cc2s1 [Example 16]
2. c1cc(-c2cnc(O[C@H]3CN4CCC3CC4)nc2)c2cc[nH]c2c1 [Example 12]

Given back:
1.7
17.1

###

Molecular target: hERG ion channel (Homo sapiens, UniProt Q12809)
Structures can show the parent of a compound that is named as a salt.
property label: log10 Ki (log10 of the value in µM)
Kindly note that the scale is log10 and the underlying Ki is in µM.

Record excerpt, results attached:
| compound | log10 Ki |
| --- | --- |
| c1cc2cc(-c3ccc(O[C@@H]4CN5CCC4CC5)nn3)ccc2[nH]1 [Example 30, fumarate] | 1.10 |
| Nc1nc2ccc(-c3ccc(O[C@H]4CN5CCC4CC5)cc3)cc2s1 | 0.18 |
| Cc1n[nH]c2ccc(-c3ccc(O[C@H]4CN5CCC4CC5)nn3)cc12 [Example 20, fumarate] | 1.11 |
| Cc1c[nH]c2ccc(-c3ccc(O[C@H]4CN5CCC4CC5)nn3)cc12 | 0.72 |
| c1cc(-c2cnc(O[C@H]3CN4CCC3CC4)nc2)c2cc[nH]c2c1 | 0.95 |

Now take the following compound into account.
Asked: What value of log10 Ki has been recorded for this entry: c1ccc2oc(-c3ccc(O[C@H]4CN5CCC4CC5)nn3)cc2c1 [Example C, trifluoroacetate, reference compound]
Given back: -0.41
